Tgt: Metabotropic glutamate receptor 5 (Rattus norvegicus, UniProt P31424)
Sequence (P31424 whole entry): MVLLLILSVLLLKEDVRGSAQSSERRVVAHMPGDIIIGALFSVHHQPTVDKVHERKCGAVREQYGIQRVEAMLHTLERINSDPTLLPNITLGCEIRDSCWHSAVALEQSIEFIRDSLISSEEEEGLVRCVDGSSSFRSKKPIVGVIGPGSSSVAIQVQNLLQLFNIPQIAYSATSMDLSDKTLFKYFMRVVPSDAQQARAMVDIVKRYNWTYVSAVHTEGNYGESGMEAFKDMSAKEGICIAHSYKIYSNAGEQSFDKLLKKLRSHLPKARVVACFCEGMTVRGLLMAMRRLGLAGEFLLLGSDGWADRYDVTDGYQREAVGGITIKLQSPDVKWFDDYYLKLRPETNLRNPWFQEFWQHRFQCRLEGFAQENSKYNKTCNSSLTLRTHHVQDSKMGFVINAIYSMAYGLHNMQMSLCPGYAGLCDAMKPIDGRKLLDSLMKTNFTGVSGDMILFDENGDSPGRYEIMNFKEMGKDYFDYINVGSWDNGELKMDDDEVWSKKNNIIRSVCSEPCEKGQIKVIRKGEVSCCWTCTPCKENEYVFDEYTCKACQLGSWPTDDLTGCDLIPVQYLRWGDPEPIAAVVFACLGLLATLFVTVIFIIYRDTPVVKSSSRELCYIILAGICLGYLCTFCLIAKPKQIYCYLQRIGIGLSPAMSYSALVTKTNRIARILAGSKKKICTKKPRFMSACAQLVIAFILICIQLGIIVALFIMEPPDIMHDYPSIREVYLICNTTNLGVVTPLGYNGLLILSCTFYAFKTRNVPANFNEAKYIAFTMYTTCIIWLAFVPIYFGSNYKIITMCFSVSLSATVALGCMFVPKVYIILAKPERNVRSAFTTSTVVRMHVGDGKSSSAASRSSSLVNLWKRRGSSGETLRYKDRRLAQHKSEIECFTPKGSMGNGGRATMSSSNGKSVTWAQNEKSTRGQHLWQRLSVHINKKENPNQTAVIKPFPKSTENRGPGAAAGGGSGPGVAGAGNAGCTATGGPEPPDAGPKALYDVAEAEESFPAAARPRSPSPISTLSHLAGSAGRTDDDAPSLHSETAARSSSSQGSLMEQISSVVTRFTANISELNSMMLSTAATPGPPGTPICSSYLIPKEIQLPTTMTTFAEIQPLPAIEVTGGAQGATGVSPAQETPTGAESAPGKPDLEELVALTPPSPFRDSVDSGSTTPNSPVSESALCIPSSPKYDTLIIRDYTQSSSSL
Assay Remarks: Displacement of [3H]AZD9272 from mGluR5 in Sprague-Dawley rat striatum by autoradiographic analysis
pIC50: −log10 of the molar value.
Endpoint Name: pIC50

Smiles Notation	Endpoint Name	Value Measured
N#Cc1ccc(-c2noc(-c3cc(F)cc(C#N)c3)n2)nc1	pIC50	7.84

====

Assay Remarks: Intrinsic clearance in human liver microsomes
Type: ADME, Microsome
Cond: read-out: CLH
Endpoint Name: microsomal CLint (µL/min/mg)

Smiles Notation	Value Measured
N#Cc1cc(F)cc(-c2nc(-c3ccc(F)cn3)no2)c1	13.5
N#Cc1cc(F)cc(-c2nc(-c3ccccn3)no2)c1	92
N#Cc1ccc(-c2noc(-c3cc(F)cc(C#N)c3)n2)nc1	3

====

Assay Remarks: AUC (0 to 8 hrs) in Sprague-Dawley rat at 3 umol/kg, po
Type: ADME, organism-based
Set-up: time < 8 hr, dose 3 umol/kg, route oral
Cond: plasma
Endpoint Name: AUC(0-t) at 8 h (µM·h)

Smiles Notation	Endpoint Name	Value Measured
N#Cc1ccc(-c2noc(-c3cc(F)cc(C#N)c3)n2)nc1	AUC(0-t) at 8 h	3.6

====

Tgt: Metabotropic glutamate receptor 5 (Homo sapiens, UniProt P41594)
Sequence (P41594 whole entry): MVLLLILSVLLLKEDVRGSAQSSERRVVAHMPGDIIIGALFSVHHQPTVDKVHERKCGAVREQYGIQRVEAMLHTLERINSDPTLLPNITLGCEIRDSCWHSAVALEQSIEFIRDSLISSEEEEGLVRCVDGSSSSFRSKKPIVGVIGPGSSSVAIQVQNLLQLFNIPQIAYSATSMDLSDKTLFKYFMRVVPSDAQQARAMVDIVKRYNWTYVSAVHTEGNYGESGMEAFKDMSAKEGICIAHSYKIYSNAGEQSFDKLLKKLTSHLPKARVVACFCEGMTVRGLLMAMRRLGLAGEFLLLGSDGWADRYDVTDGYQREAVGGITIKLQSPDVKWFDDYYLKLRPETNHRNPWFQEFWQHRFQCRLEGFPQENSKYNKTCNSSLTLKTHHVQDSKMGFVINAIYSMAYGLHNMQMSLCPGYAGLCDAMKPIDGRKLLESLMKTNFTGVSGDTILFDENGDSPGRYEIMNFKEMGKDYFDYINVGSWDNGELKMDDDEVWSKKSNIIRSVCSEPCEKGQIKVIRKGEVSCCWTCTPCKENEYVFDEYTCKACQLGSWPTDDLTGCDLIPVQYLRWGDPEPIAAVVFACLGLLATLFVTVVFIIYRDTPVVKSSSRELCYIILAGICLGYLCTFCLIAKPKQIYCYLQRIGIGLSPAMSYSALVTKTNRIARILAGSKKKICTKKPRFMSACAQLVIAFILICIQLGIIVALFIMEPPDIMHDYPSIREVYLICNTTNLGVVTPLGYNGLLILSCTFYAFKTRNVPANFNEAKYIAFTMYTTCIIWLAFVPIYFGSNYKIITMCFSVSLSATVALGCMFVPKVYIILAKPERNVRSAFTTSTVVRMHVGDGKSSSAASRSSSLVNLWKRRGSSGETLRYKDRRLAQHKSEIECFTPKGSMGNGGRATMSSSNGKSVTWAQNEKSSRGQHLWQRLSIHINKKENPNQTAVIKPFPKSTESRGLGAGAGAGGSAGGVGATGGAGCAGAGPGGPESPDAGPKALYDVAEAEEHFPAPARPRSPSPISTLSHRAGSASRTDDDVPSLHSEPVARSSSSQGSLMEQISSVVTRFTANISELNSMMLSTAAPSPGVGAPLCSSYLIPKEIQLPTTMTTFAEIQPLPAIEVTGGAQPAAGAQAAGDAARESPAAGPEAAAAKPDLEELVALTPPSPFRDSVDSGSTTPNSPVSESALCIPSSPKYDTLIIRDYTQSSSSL
Assay Remarks: Binding affinity to human mGluR5 expressed in HEK293 cell membranes expressing GLAST after 1 hr by scintillation counter in absence of MPEP
pKd: −log10 of the molar value.

Smiles Notation	pKd
[3H]c1c(F)cc(-c2nc(-c3ccc(F)cn3)no2)cc1C#N	8.42

====

Assay Remarks: Intrinsic clearance in rat liver microsomes
Type: ADME, Microsome
Cond: read-out: CLH
Listing of recorded microsomal CLint by entry.
Endpoint Name: microsomal CLint

Smiles Notation	Endpoint Name	Value Measured
N#Cc1ccc(-c2noc(-c3cc(F)cc(C#N)c3)n2)nc1	microsomal CLint	6 µL/min/mg
N#Cc1cc(F)cc(-c2nc(-c3ccccn3)no2)c1	microsomal CLint	29 µL/min/mg
N#Cc1cc(F)cc(-c2nc(-c3ccc(F)cn3)no2)c1	microsomal CLint	10 µL/min/mg

====

Assay Remarks: Volume of distribution at steady state in Sprague-Dawley rat at 3 umol/kg, iv
Format: ADME, organism-based
Cond: in vivo, read-out: Vdss
Endpoint Name: Vd (L/kg)

Smiles Notation	Value Measured
N#Cc1cc(F)cc(-c2nc(-c3ccc(F)cn3)no2)c1	1.6
N#Cc1ccc(-c2noc(-c3cc(F)cc(C#N)c3)n2)nc1	2

====

Tgt: Metabotropic glutamate receptor 5 (Homo sapiens, UniProt P41594)
Assay Remarks: Displacement of [3H]MPEP from human mGluR5 expressed in HEK293 cell membranes expressing GLAST after 1 hr by scintillation counter
pKi: −log10 of the molar value.

Smiles Notation	pKi
N#Cc1ccc(-c2noc(-c3cc(F)cc(C#N)c3)n2)nc1	7.55

====

Tgt: Metabotropic glutamate receptor 5 (Homo sapiens, UniProt P41594)
Assay Remarks: Binding affinity to human mGluR5 expressed in HEK293 cell membranes expressing GLAST after 1 hr by scintillation counter in presence of 20 nM MPEP

Smiles Notation	Measure Unit	Kd
[3H]c1c(F)cc(-c2nc(-c3ccc(F)cn3)no2)cc1C#N	nM	7.2

====

Assay Remarks: Terminal half life in Sprague-Dawley rat at 3 umol/kg, iv
Format: ADME, organism-based
Cond: in vivo, read-out: beta t1/2 (converted)
Listing of recorded half-life by entry.

Smiles Notation	half-life, h
N#Cc1cc(F)cc(-c2nc(-c3ccc(F)cn3)no2)c1	2.5
N#Cc1ccc(-c2noc(-c3cc(F)cc(C#N)c3)n2)nc1	5.6

====

Assay Remarks: Equilibrium solubility of the compound […]
Assay type: physicochemical

Smiles Notation	solubility, µM
N#Cc1ccc(-c2noc(-c3cc(F)cc(C#N)c3)n2)nc1	16.1
N#Cc1cc(F)cc(-c2nc(-c3ccc(F)cn3)no2)c1	4.2
N#Cc1cc(F)cc(-c2nc(-c3ccccn3)no2)c1	78.1

====

Listing of recorded IC50 by entry.
Tgt: UniProt:P41594
Assay Remarks: Negative allosteric modulation of human recombinant mGluR5 expressed in HEK293 cells expressing GLAST assessed as inhibition of DHPG-induced intracellular Ca2+ level after 30 mins by FLIPR assay

Smiles Notation	Censoring Sign	IC50, nM
O=[N+]([O-])c1cccc(-c2nc(-c3ccccn3)no2)c1	=	236
N#Cc1cc(F)cc(-c2nc(-c3ncccn3)no2)c1	=	1100
N#Cc1cc(F)cc(-c2ccc(-c3ccccn3)o2)c1	=	61
FC(F)(F)Oc1cccc(-c2nc(-c3ccccn3)no2)c1	=	700
FC(F)(F)c1cc(-c2nc(-c3ccccn3)no2)cc(C(F)(F)F)c1	>	10000
N#Cc1cc(F)cc(-c2noc(-c3ccccn3)n2)c1	=	23
Clc1cc(Cl)cc(-c2nc(-c3ccccn3)no2)c1	=	142
N#Cc1cc(F)cc(-c2nc(-c3ccc(F)cn3)no2)c1	=	7.6
Clc1ccccc1-c1nc(-c2ccccn2)no1	=	436
N#Cc1ccc(-c2noc(-c3cc(F)cc(C#N)c3)n2)nc1	=	13.4
N#Cc1cc(F)cc(-c2nc(-c3cnccn3)no2)c1	=	4700
N#Cc1cc(C#N)cc(-c2nc(-c3ccccn3)no2)c1	=	176

====

Tgt: Metabotropic glutamate receptor 5 (Homo sapiens, UniProt P41594)
Assay Remarks: Negative allosteric modulation of human recombinant mGluR5 expressed in HEK293 cells expressing GLAST assessed as inhibition of DHPG-induced intracellular Ca2+ level after 30 mins by FLIPR assay
pIC50: −log10 of the molar value.
Listing of recorded pIC50 by entry.

Smiles Notation	Tgt	Censoring Sign	pIC50
Clc1cccc(-c2nc(-c3ccccn3)no2)c1	Metabotropic glutamate receptor 5 (Homo sapiens, UniProt P41594)	=	6.94
Clc1ccc(-c2nc(-c3ccccn3)no2)cc1Cl	Metabotropic glutamate receptor 5 (Homo sapiens, UniProt P41594)	<	5.00
Clc1ccc(-c2nc(-c3ccccn3)no2)cc1	Metabotropic glutamate receptor 5 (Homo sapiens, UniProt P41594)	<	5.00
Brc1cccc(-c2nc(-c3ccccn3)no2)c1	Metabotropic glutamate receptor 5 (Homo sapiens, UniProt P41594)	=	6.93
Clc1ccc(-c2nc(-c3ccccn3)no2)c(Cl)c1	Metabotropic glutamate receptor 5 (Homo sapiens, UniProt P41594)	=	5.77
COc1cccc(-c2nc(-c3ccccn3)no2)c1	Metabotropic glutamate receptor 5 (Homo sapiens, UniProt P41594)	=	6.27
Fc1cccc(-c2nc(-c3ccccn3)no2)c1	Metabotropic glutamate receptor 5 (Homo sapiens, UniProt P41594)	=	6.07
N#Cc1cc(F)cc(-c2nc(-c3ccccn3)co2)c1	Metabotropic glutamate receptor 5 (Homo sapiens, UniProt P41594)	=	7.66
NC(=O)c1ccccc1-c1nc(-c2ccccn2)no1	Metabotropic glutamate receptor 5 (Homo sapiens, UniProt P41594)	=	5.48
N#Cc1cc(F)cc(-c2nc(-c3ccccn3)no2)c1	Metabotropic glutamate receptor 5 (Homo sapiens, UniProt P41594)	=	7.60
Fc1cc(F)cc(-c2nc(-c3ccccn3)no2)c1	Metabotropic glutamate receptor 5 (Homo sapiens, UniProt P41594)	=	6.81
Clc1cccc(-c2nc(-c3ccccn3)no2)c1Cl	Metabotropic glutamate receptor 5 (Homo sapiens, UniProt P41594)	=	6.56
Cc1cccc(-c2nc(-c3ccccn3)no2)c1	Metabotropic glutamate receptor 5 (Homo sapiens, UniProt P41594)	=	6.35
